Plant response rating, Velvetleaf overview
tested on: velvetleaf; assay: Test C pre-/postemergence herbicide test; type: in vivo, Abutilon theophrasti; conditions: Postemergence, 125 g ai/ha; scale 0 to 100 (0 no effect, 100 complete control)
READOUT_TYPE: Plant response rating, Velvetleaf

| COMPOUND | OBS_VALUE |
| --- | --- |
| O=C1NCC(c2ccc(C(F)(F)F)cc2)C1C(=O)Nc1ccc(F)c(F)c1F (stereo not shown) | 30 |
| O=C1NCC(c2cccc(OC(F)F)c2)C1C(=O)Nc1cccc(F)c1F (stereo not shown) | 50 |
| O=C1NCC(c2cccc(Br)c2)C1C(=O)Nc1cccc(F)c1F (stereo not shown) | 5 |
| O=C1NCC(c2ccccc2)C1C(=O)Nc1ccccc1F (racemic) | 0 |

###

system: pigweed; test: Test A pre-/postemergence herbicide test; assay type: in vivo, Amaranthus retroflexus; details: Postemergence, 500 g ai/ha
READOUT_TYPE: Pigweed plant response rating (0 to 100 scale, 0 is no effect, 100 is complete control)

| COMPOUND | TARGET_ENTITY | OBS_VALUE |
| --- | --- | --- |
| O=C1NCC(c2cccc(OC(F)F)c2)C1C(=O)Nc1ccccc1C(F)(F)F (stereo not shown) | pigweed | 20 |
| CC(C)(C)c1cccc(C2CNC(=O)C2C(=O)Nc2ccccc2C(F)(F)F)c1 (racemic) | pigweed | 0 |
| CC(C)(C)c1cccc(C2CNC(=O)C2C(=O)Nc2cccc(F)c2F)c1 (racemic) | pigweed | 0 |
| Cc1cc(C2CNC(=O)C2C(=O)Nc2ccccc2Cl)ccc1F (racemic) | pigweed | 0 |

###

Recorded Plant response rating, Kochia for the following molecules
test system: kochia; assay: Test A pre-/postemergence herbicide test; assay type: in vivo, Kochia scoparia; conditions: Postemergence, 125 g ai/ha; 0 to 100 scale, 0 is no effect, 100 is complete control
READOUT_TYPE: Plant response rating, Kochia

| MOLECULE | OBS_VALUE |
| --- | --- |
| O=C1NCC(c2cccc(OC(F)F)c2)C1C(=O)Nc1ccccc1F (stereo not shown) | 50 |
| O=C1NCC(c2cccc(Cl)c2)C1C(=O)Nc1cccc(F)c1F (racemic) | 50 |
| O=C1NCC(c2cccc(C(F)(F)F)c2)C1C(=O)Nc1cccc(F)c1 (racemic) | 0 |
| CCc1cccc(C2CNC(=O)C2C(=O)Nc2ccc(F)c(F)c2F)c1 (racemic) | 0 |

###

tested on: nightshade; assay: Test C pre-/postemergence herbicide test; assay type: in vivo, Solanum ptycanthum; details: Preemergence, 62 g ai/ha; scale 0 to 100

| COMPOUND | TARGET_ENTITY | Plant response rating, Nightshade |
| --- | --- | --- |
| O=C1NCC(c2ccc3c(c2)OC(F)(F)O3)C1C(=O)Nc1cccc(F)c1F (stereo not shown) [Compound 62] | nightshade | 15 |
| O=C1NCC(c2ccc(F)cc2)C1C(=O)Nc1ccccc1F (racemic) [Compound 16] | nightshade | 0 |
| Cc1ccccc1NC(=O)C1C(=O)NCC1c1cc(F)c(F)c(F)c1 (racemic) [Compound 35] | nightshade | 0 |
| O=C1NCC(c2cc(F)c(F)c(F)c2)C1C(=O)Nc1ccccc1C(F)(F)F (racemic) [Compound 33] | nightshade | 0 |

###

Measured Plant response rating, Galium of individual entries
test system: galium; assay: Test C pre-/postemergence herbicide test; format: in vivo, Galium aparine; conditions: Preemergence, 250 g ai/ha; scale 0 to 100 (0 no effect, 100 complete control)
READOUT_TYPE: Plant response rating, Galium

| MOLECULE | OBS_VALUE |
| --- | --- |
| O=C1NCC(c2cc(F)c(F)c(F)c2)C1C(=O)Nc1ccccc1C(F)(F)F (racemic) [Compound 33] | 90 |
| Cc1ccccc1NC(=O)C1C(=O)NCC1c1cc(F)c(F)c(F)c1 (racemic) [Compound 35] | 30 |
| O=C1NCC(c2ccc(F)c(Cl)c2)C1C(=O)Nc1cccc(F)c1F (stereo not shown) [Compound 59] | 85 |
| O=C1NCC(c2cccc(Br)c2)C1C(=O)Nc1cccc(F)c1F (stereo not shown) [Compound 64] | 0 |

###

test system: foxtail, giant; assay: Test C pre-/postemergence herbicide test; format: in vivo, Setaria faberii; settings: Postemergence, 31 g ai/ha; scale 0 to 100 (0 no effect, 100 complete control)
Reported Plant response rating, Foxtail, Giant is given for each of the following compounds.

| COMPOUND | Plant response rating, Foxtail, Giant |
| --- | --- |
| O=C1NCC(c2cc(F)cc(F)c2)C1C(=O)Nc1ccc(F)cc1F (racemic) | 10 |
| O=C1NCC(c2cccc(C(F)(F)F)c2)C1C(=O)Nc1ccc(F)cc1F (racemic) | 20 |
| O=C1NCC(c2cccc(C(F)(F)F)c2)C1C(=O)Nc1cccc(Cl)c1F (centres unmarked) | 5 |
| O=C1NCC(c2cccc(OC(F)F)c2)C1C(=O)Nc1cccc(F)c1F (centres unmarked) | 0 |
| O=C1NCC(c2cccc(Cl)c2)C1C(=O)Nc1cccc(F)c1F (racemic) | 10 |

###

tested on: chickweed; assay: Test C postemergence herbicide test; type: in vivo, Stellaria media; conditions: 250 g ai/ha, scale 0 to 100 (0 no effect, 100 complete control)
From the text: […]

| MOLECULE | Plant response rating, Chickweed |
| --- | --- |
| O=C1NCC(c2cccc(OC(F)F)c2)C1C(=O)Nc1ccccc1F (centres unmarked) | 80 |
| O=C1NCC(c2cc(F)c(F)c(F)c2)C1C(=O)Nc1ccccc1F (racemic) | 5 |
| O=C1NCC(c2ccc(C(F)(F)F)cc2)C1C(=O)Nc1ccc(F)c(F)c1F (centres unmarked) | 85 |
| O=C1NCC(c2cc(F)cc(F)c2)C1C(=O)Nc1cccc(F)c1F (racemic) | 5 |
| O=C1NCC(c2cc(F)cc(F)c2)C1C(=O)Nc1ccc(F)cc1F (racemic) | 0 |

###

Items are presented alongside their recorded Crabgrass, Large plant response rating.
test system: crabgrass, large; test: Test A pre-/postemergence herbicide test; format: in vivo, Digitaria sanguinalis; conditions: Preemergence, 125 g ai/ha; visual rating on 0 to 100 scale (0 no effect, 100 complete control)
READOUT_TYPE: Crabgrass, Large plant response rating

| COMPOUND | TARGET_ENTITY | OBS_VALUE |
| --- | --- | --- |
| O=C1NCC(c2ccc(Cl)cc2)C1C(=O)Nc1ccccc1F (racemic) [Compound 87] | crabgrass, large | 80 |
| O=C1NCC(c2ccc(F)c(C(F)(F)F)c2)C1C(=O)Nc1ccccc1C(F)(F)F (racemic) [Compound 78] | crabgrass, large | 90 |
| O=C1NCC(c2ccsc2)C1C(=O)Nc1ccccc1C(F)(F)F (racemic) [Compound 28] | crabgrass, large | 30 |
| O=C1NCC(c2cccc(Br)c2)C1C(=O)Nc1ccccc1F (centres unmarked) [Compound 66] | crabgrass, large | 80 |
| O=C1NCC(c2ccc(F)c(F)c2)C1C(=O)Nc1cccc(F)c1F (racemic) [Compound 107] | crabgrass, large | 80 |
| O=C1NCC(c2ccc(F)c(Cl)c2)C1C(=O)Nc1ccccc1C(F)(F)F (centres unmarked) [Compound 74] | crabgrass, large | 90 |
| O=C1NCC(c2ccc(F)c(F)c2)C1C(=O)Nc1ccccc1Br (centres unmarked) [Compound 55] | crabgrass, large | 80 |
| CC1NC(=O)C(C(=O)Nc2ccccc2F)C1c1ccc(F)c(F)c1 (mixture of isomers) [Compound 7] | crabgrass, large | 80 |
| O=C1NCC(c2ccc(Cl)c(F)c2)C1C(=O)Nc1ccccc1F (centres unmarked) [Compound 53] | crabgrass, large | 90 |
| O=C1NCC(c2ccc(F)c(F)c2)C1C(=O)Nc1cccc2c1OC(F)(F)O2 (centres unmarked) [Compound 57] | crabgrass, large | 80 |
| O=C1NC[C@@H](c2ccc(F)c(F)c2)[C@@H]1C(=O)Nc1ccccc1F [Compound 102] | crabgrass, large | 0 |

###

tested on: ryegrass, Italian; experiment: Test C pre-/postemergence herbicide test; type: in vivo, Lolium multiflorum; details: Preemergence, 125 g ai/ha; scale 0 to 100
Measured Plant response rating, Ryegrass, Italian, listed per entry for reference.
READOUT_TYPE: Plant response rating, Ryegrass, Italian

| COMPOUND | OBS_VALUE |
| --- | --- |
| O=C1NCC(c2cccc(C(F)(F)F)c2)C1C(=O)Nc1cccc(Cl)c1F (stereo not shown) | 10 |
| Cc1cccc(NC(=O)C2C(=O)NCC2c2cccc(C(F)(F)F)c2)c1 (stereo not shown) | 0 |
| O=C1NCC(c2cccc(OC(F)F)c2)C1C(=O)Nc1cccc(F)c1F (stereo not shown) | 35 |
| O=C1NCC(c2cccc(C(F)(F)F)c2)C1C(=O)Nc1ccccc1Cl (stereo not shown) | 35 |

###

tested on: crabgrass, large; assay: Test A pre-/postemergence herbicide test; format: in vivo, Digitaria sanguinalis; conditions: Postemergence, 500 g ai/ha; 0 to 100 scale (0 no effect, 100 complete control)

| COMPOUND | Plant response rating, Crabgrass, Large |
| --- | --- |
| O=C1NCC(c2ccccc2)C1C(=O)Nc1cccc(F)c1F (centres unmarked) [Compound 65] | 90 |
| N#Cc1cccc(C2CNC(=O)C2C(=O)Nc2cccc(F)c2F)c1 (racemic) [Compound 73] | 80 |
| O=C1NCC(c2ccc(C(F)(F)F)nc2)C1C(=O)Nc1cccc(F)c1F (racemic) [Compound 263] | 90 |
| CC1NC(=O)C(C(=O)Nc2ccccc2F)C1c1ccc(F)c(F)c1 (mixture of isomers) [Compound 8] | 70 |
| CC(C)(C)OC(=O)Nc1cccc(C2CNC(=O)C2C(=O)Nc2cccc(F)c2F)c1 (centres unmarked) [Compound 70] | 70 |
| O=C1NCC(c2ccc(F)c(C(F)(F)F)c2)C1C(=O)Nc1ccccc1C(F)(F)F (racemic) [Compound 78] | 80 |
| O=C1NCC(c2ccc(F)c(F)c2)C1C(=O)Nc1cccc(F)c1F (racemic) [Compound 107] | 70 |
| CC1NC(=O)C(C(=O)Nc2ccccc2F)C1c1ccc(F)c(F)c1 (mixture of isomers) [Compound 7] | 80 |
